- Assay explanation: DRUGMATRIX: GABAA, Muscimol, Central radioligand binding (ligand: [3H] Muscimol)
- Format: cell membranes, Rattus norvegicus, Wistar, Brain, Membrane
- Cond: Not Active = under 50% inhibition at 10 µM
Reported metric: Ki

Examples from the recorded data:
>  <Compound>
CCOC(=O)C1=C(C)NC(C)=C(C(=O)OCC)C1c1ccccc1/C=C/C(=O)OC(C)(C)C [LACIDIPINE]

>  <Ki>
Not Active

$$$$
>  <Compound>
CCN1CCN(c2cc3c(cc2F)c(=O)c(C(=O)O)cn3C2CC2)CC1 [ENROFLOXACIN]

>  <Ki>
Not Active

$$$$
>  <Compound>
c1ccc2c(c1)Nc1ccccc1S2 [PHENOTHIAZINE]

>  <Ki>
Not Active

$$$$
>  <Compound>
Cc1cnc(NC(=O)C2=C(O)c3ccccc3S(=O)(=O)N2C)s1 [MELOXICAM]

>  <Ki>
Not Active

$$$$

Kindly give each listed record's Ki.
1. O=C(c1ccccc1)c1ccc2n1CCC2C(=O)O (centres undefined) [KETOROLAC]
2. CCOc1cc(N)c(Cl)cc1C(=O)NCC1CN(Cc2ccc(F)cc2)CCO1 (centres undefined) [MOSAPRIDE]
3. Cc1cccc(C)c1NC(=O)C(C)N (centres undefined) [TOCAINIDE]
4. COc1ccc(Cl)cc1C(=O)NCCc1ccc(S(=O)(=O)NC(=O)NC2CCCCC2)cc1 [GLYBURIDE]
5. OC[C@H]1O[C@@H]2O[C@H]3[C@H](O)[C@@H](O)[C@@H](O[C@H]4[C@H](O)[C@@H](O)[C@@H](O[C@H]5[C@H](O)[C@@H](O)[C@@H](O[C@H]6[C@H](O)[C@@H](O)[C@@H](O[C@H]7[C@H](O)[C@@H](O)[C@@H](O[C@H]8[C@H](O)[C@@H](O)[C@@H](O[C@H]1[C@H](O)[C@H]2O)O[C@@H]8CO)O[C@@H]7CO)O[C@@H]6CO)O[C@@H]5CO)O[C@@H]4CO)O[C@@H]3CO [BETADEX]
6. O=C(O)c1cc(/N=N/c2ccc(S(=O)(=O)Nc3ccccn3)cc2)ccc1O [SULFASALAZINE]
7. CCN1C[C@]2(COC)[C@H](O)C[C@H](OC)[C@@]34[C@@H]5C[C@@]6(O)[C@H](OC(=O)c7ccccc7)[C@@H]5[C@@](OC(C)=O)([C@@H]([C@H](OC)[C@H]23)[C@@H]14)[C@@H](O)[C@@H]6OC [ACONITINE]
8. CC[C@@]1(O)C(=O)OCc2c1cc1n(c2=O)Cc2cc3c(CN(C)C)c(O)ccc3nc2-1 [TOPOTECAN]

1. Not Active
2. Not Active
3. Not Active
4. Not Active
5. Not Active
6. Not Active
7. Not Active
8. Not Active

Kindly give each listed record's Ki.
1. CC1(C)[C@H](C(=O)O)N2C(=O)C[C@H]2S1(=O)=O [SULBACTAM]
2. C#C[C@]1(O)CC[C@H]2[C@@H]3CCC4=CC(=O)CC[C@@H]4[C@H]3CC[C@@]21C [NORETHINDRONE]

["Not Active", "Not Active"]
